# Test system: Kluyveromyces marxianus
# assay.details: In vitro antifungal activity for Candida pseudotropicalis 2371E
# Type: functional
Field 'label' (enum: Met / Not met). Set to Met when MIC is strictly under 0.06 µg/mL; else Not met.

Some solved entries appear below for comparison.
1) CC(C)C1=CC2CC3(C=O)[C@@H]4CC[C@@H](C)[C@H]4CC2(CO[C@@H]2O[C@H](C)[C@H]4OC(C)(C)OC4[C@H]2O)C13C(=O)O (single isomer, unassigned) ... Not met
2) CC(C)C1=CC2CC3(C=O)[C@@H]4CC[C@@H](C)[C@H]4CC2(CO[C@H]2C[C@@H]4OC(C)(C)CO[C@@H]4[C@@H](C)O2)C13C(=O)O (some centres not stated) ... Met
3) CC(C)C1=CC2CC3(C=O)[C@@H]4CC[C@@H](C)[C@H]4CC2(CO[C@H]2C[C@@H]4OCO[C@@H]4[C@@H](C)O2)C13C(=O)O (some centres not stated) ... Met
4) CC(C)C1=CC2CC3(C=O)[C@@H]4CC[C@@H](C)[C@H]4CC2(CO[C@@H]2O[C@H](C)[C@H]4OC(=S)OC4[C@@H]2O)C13C(=O)O (single isomer, unassigned) ... Not met
5) CC(C)C1=CC2CC3(C=O)[C@@H]4CC[C@@H](C)[C@H]4CC2(CO[C@H]2C[C@@H]4OC(=S)O[C@@H]4[C@@H](C)O2)C13C(=O)O (some centres not stated) ... Not met
6) CC1O[C@H]2[C@H](C[C@H](OCC34C[C@@H]5[C@H](C)CC[C@H]5C5(C=O)CC3C=C(C(C)C)C45C(=O)O)O[C@@H]2C)O1 (some centres not stated) ... Met

Dear colleague, could you confirm whether MIC of CC(C)C1=CC2CC3(C=O)[C@@H]4CC[C@@H](C)[C@H]4CC2(CO[C@H]2C[C@@H]4OC(=O)O[C@@H]4[C@@H](C)O2)C13C(=O)O (some centres not stated) falls below 0.06 µg/mL? Thanks.
Not met

What do you get for CC1OC2[C@H](O)[C@H](OCC34C[C@@H]5[C@H](C)CC[C@H]5C5(C=O)CC3C=C(C(C)C)C45C(=O)O)O[C@H](C)[C@H]2O1 (single isomer, unassigned) ?
Not met

What do you get for CC(C)C1=CC2CC3(C=O)[C@@H]4CC[C@@H](C)[C@H]4CC2(CO[C@@H]2C[C@@H]4OC(C)(C)O[C@@H]4[C@@H](C)O2)C13C(=O)O (some centres not stated) ?
Not met

What do you get for C/C=C/C=C(\C)C(=O)O[C@H]1[C@H](O)[C@H](OCC23C[C@@H]4[C@H](C)CC[C@H]4C4(C=O)CC2C=C(C(C)C)C34C(=O)O)O[C@H](C)[C@H]1OC (some centres not stated) ?
Met

What do you get for CC(C)C1=CC2CC3(C=O)[C@@H]4CC[C@@H](C)[C@H]4CC2(CO[C@H]2C[C@@H]4OC(C)(C)O[C@@H]4[C@@H](C)O2)C13C(=O)O (some centres not stated) ?
Met
